Molecular target: FXIIa (Homo sapiens)
Sequence (P00748 373-615 limits assumed): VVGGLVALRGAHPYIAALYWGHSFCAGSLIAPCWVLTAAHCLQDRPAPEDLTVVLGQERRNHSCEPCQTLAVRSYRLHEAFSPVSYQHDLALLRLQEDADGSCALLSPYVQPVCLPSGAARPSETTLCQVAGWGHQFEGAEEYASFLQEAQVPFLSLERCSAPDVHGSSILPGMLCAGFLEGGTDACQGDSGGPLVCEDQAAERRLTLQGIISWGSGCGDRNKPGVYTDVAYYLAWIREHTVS
Experiment: Isolated enzyme potency against FXIIa, preincubation time course
Settings: read-out: FXIIa IC50; 60 min preincubation
Items are presented alongside their recorded IC50.

{"molecule": "CC1(C)OB(C(N)c2cccc(Cl)c2)OC1(C)C.Cl (stereo not shown) [Compound 15a]", "testedTarget": "FXIIa (Homo sapiens)", "IC50": "> 400 µM"}
{"molecule": "CC1(C)OB(C(NC(=O)c2cnn(Cc3ccccc3)c2)c2cccc(Cl)c2)OC1(C)C (stereo not shown) [Compound 17a]", "testedTarget": "FXIIa (Homo sapiens)", "IC50": "> 400 µM"}
{"molecule": "O=C(NC(B(O)O)c1cccc(Cl)c1)c1cnn(Cc2ccccc2)c1 (stereo not shown)", "testedTarget": "FXIIa (Homo sapiens)", "IC50": "> 400 µM"}
{"molecule": "Cc1ccc(C(NC(=O)c2cnn(Cc3ccccc3)c2)B2OC(C)(C)C(C)(C)O2)c(F)c1 (stereo not shown) [Compound 17b]", "testedTarget": "FXIIa (Homo sapiens)", "IC50": "> 400 µM"}

---

Target: plasma kallikrein (PKa) (Homo sapiens)
Experiment: Isolated enzyme potency against PKa, IC50 after enzyme/inhibitor preincubation time course
Details: read-out: PKa IC50; 1 min preincubation

{"molecule": "Cc1ccc(CNC(=O)c2cnn(Cc3ccc(Cn4ccccc4=O)cc3)c2)c(F)c1", "valueQualifier": "=", "IC50 [nM]": 37}
{"molecule": "O=C(NCc1cccc(Cl)c1)c1cnn(Cc2ccc(Cn3cccn3)cc2)c1", "valueQualifier": ">", "IC50 [nM]": 40000}
{"molecule": "O=C(NCc1cccc(Cl)c1)c1cnn(Cc2ccc(Cn3ccccc3=O)cc2)c1", "valueQualifier": "=", "IC50 [nM]": 270}
{"molecule": "Cc1ccc(C(NC(=O)c2cnn(Cc3ccc(Cn4cccn4)cc3)c2)B2OC(C)(C)C(C)(C)O2)c(F)c1 (stereo not shown)", "valueQualifier": "=", "IC50 [nM]": 66}
{"molecule": "O=C(/C=C/c1cccc(Cl)c1)c1cnn(Cc2ccc(Cn3cccn3)cc2)c1", "valueQualifier": ">", "IC50 [nM]": 40000}
{"molecule": "Cc1ccc(CNC(=O)c2cnn(Cc3ccc(Cn4cccn4)cc3)c2)c(F)c1", "valueQualifier": "=", "IC50 [nM]": 199}
{"molecule": "Cc1ccc(C(NC(=O)c2cnn(Cc3ccc(Cn4ccccc4=O)cc3)c2)B2OC(C)(C)C(C)(C)O2)c(F)c1 (stereo not shown)", "valueQualifier": "=", "IC50 [nM]": 94}

---

Biological target: FXIa (Homo sapiens, UniProt P03951)
Sequence (P03951 388-625 limits assumed): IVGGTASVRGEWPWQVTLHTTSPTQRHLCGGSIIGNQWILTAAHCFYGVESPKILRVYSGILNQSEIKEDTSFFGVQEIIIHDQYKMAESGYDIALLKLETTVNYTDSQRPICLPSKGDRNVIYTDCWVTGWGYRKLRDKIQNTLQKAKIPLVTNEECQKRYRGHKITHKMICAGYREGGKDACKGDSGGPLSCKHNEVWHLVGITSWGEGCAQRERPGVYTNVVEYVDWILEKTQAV
Sequence (P03951 19-387 partner limits assumed): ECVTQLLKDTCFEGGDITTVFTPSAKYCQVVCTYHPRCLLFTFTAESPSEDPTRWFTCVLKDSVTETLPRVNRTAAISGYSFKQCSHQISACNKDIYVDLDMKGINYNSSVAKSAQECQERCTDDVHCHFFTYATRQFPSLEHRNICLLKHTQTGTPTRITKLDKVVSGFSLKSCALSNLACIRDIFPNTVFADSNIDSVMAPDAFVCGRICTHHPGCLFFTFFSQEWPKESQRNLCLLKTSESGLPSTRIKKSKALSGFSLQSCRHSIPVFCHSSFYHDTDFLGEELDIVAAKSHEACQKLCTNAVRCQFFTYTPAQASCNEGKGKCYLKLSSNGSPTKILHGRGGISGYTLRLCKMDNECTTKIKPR
Assay: Time-dependent potency determination against FXIa
Format: biochemical
Conditions: 1 min preincubation
pIC50: −log10 of the molar value.
reportedProperty: pIC50

{"substance": "D-Phe-Pro-Arg-chloromethylketone [Compound 23, reference compound]", "reportedProperty": "pIC50", "valueMeasured": "< 4.40"}

---

Molecular target: plasma kallikrein (PKa) (Homo sapiens)
Assay: Isolated enzyme potency against PKa, IC50 after enzyme/inhibitor preincubation time course
Conditions: read-out: PKa IC50; 60 min preincubation
pIC50: −log10 of the molar value.

{"molecule": "Cc1ccc(C(NC(=O)c2cnn(Cc3ccc(Cn4cccn4)cc3)c2)B2OC(C)(C)C(C)(C)O2)c(F)c1 (stereo not drawn)", "valueQualifier": "=", "pIC50": 9.52}
{"molecule": "Cc1ccc(C(NC(=O)c2cnn(Cc3ccc(Cn4ccccc4=O)cc3)c2)B2OC(C)(C)C(C)(C)O2)c(F)c1 (stereo not drawn)", "valueQualifier": "=", "pIC50": 8.72}
{"molecule": "CC1(C)OB(C(N)c2cccc(Cl)c2)OC1(C)C.Cl (stereo not drawn) [Compound 15a]", "valueQualifier": "<", "pIC50": 3.40}
{"molecule": "Cc1ccc(CNC(=O)c2cnn(Cc3ccc(Cn4cccn4)cc3)c2)c(F)c1", "valueQualifier": "=", "pIC50": 6.71}
{"molecule": "O=C(/C=C/c1cccc(Cl)c1)c1cnn(Cc2ccc(Cn3cccn3)cc2)c1", "valueQualifier": "<", "pIC50": 4.40}
{"molecule": "O=C(NC(B(O)O)c1cccc(Cl)c1)c1cnn(Cc2ccccc2)c1 (stereo not drawn)", "valueQualifier": "<", "pIC50": 3.40}
{"molecule": "Cc1ccc(CNC(=O)c2cnn(Cc3ccc(Cn4ccccc4=O)cc3)c2)c(F)c1", "valueQualifier": "=", "pIC50": 7.46}
{"molecule": "O=C(NCc1cccc(Cl)c1)c1cnn(Cc2ccc(Cn3cccn3)cc2)c1", "valueQualifier": "<", "pIC50": 4.40}
{"molecule": "O=C(NCc1cccc(Cl)c1)c1cnn(Cc2ccc(Cn3ccccc3=O)cc2)c1", "valueQualifier": "=", "pIC50": 6.56}

---

Molecular target: FXIa (Homo sapiens, UniProt P03951)
Test: Time-dependent potency determination against FXIa
Format: biochemical
Settings: 1 min preincubation
pIC50: −log10 of the molar value.
Overview of recorded pIC50 for various compounds

{"compound": "CC1(C)OB(C(CC(=O)c2cnn(Cc3ccc(Cn4cccn4)cc3)c2)c2cccc(Cl)c2)OC1(C)C (stereo not drawn)", "pIC50": "< 4.40"}
{"compound": "Cc1ccc(CNC(=O)c2cnn(Cc3ccc(Cn4cccn4)cc3)c2)c(F)c1", "pIC50": "< 4.40"}
{"compound": "Cc1ccc(C(CC(=O)c2cnn(Cc3ccc(Cn4cccn4)cc3)c2)B2OC(C)(C)C(C)(C)O2)c(F)c1 (stereo not drawn)", "pIC50": "< 4.40"}
{"compound": "O=C(NCc1cccc(Cl)c1)c1cnn(Cc2ccc(Cn3cccn3)cc2)c1", "pIC50": "< 4.40"}
{"compound": "Cc1ccc(C(NC(=O)c2cnn(Cc3ccc(Cn4cccn4)cc3)c2)B2OC(C)(C)C(C)(C)O2)c(F)c1 (stereo not drawn)", "pIC50": 4.73}
{"compound": "CC1(C)OB(C(NC(=O)c2cnn(Cc3ccc(Cn4cccn4)cc3)c2)c2cccc(Cl)c2)OC1(C)C (stereo not drawn)", "pIC50": "< 4.40"}

---

Target: plasma kallikrein (PKa) (Homo sapiens, UniProt P03952)
Sequence (P03952 391-638 limits assumed): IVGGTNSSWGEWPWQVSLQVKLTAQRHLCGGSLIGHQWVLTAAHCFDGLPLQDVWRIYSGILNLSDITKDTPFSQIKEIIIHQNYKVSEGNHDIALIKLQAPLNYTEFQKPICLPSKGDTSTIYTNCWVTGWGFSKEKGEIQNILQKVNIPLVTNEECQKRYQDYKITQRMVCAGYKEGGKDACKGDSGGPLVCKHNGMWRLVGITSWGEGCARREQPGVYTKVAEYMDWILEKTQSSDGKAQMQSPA
Sequence (P03952 20-390 partner limits assumed): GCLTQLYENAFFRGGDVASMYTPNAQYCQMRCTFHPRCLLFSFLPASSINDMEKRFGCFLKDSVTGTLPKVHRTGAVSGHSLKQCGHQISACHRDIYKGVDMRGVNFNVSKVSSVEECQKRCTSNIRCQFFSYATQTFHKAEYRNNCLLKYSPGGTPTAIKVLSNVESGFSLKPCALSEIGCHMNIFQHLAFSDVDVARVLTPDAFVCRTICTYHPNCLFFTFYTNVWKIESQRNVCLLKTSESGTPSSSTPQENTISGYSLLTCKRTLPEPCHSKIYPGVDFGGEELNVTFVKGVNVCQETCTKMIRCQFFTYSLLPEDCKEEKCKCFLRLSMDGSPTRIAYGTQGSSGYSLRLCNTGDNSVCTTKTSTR
Assay: Isolated enzyme potency against PKa, IC50 after enzyme/inhibitor preincubation time course
Conditions: read-out: PKa IC50; 2 h, extended time course
pIC50: −log10 of the molar value.

{"compound": "Cc1ccc(C(NC(=O)c2cnn(Cc3ccc(Cn4cccn4)cc3)c2)B2OC(C)(C)C(C)(C)O2)c(F)c1 (stereo not shown) [Compound 20]", "testedTarget": "plasma kallikrein (PKa) (Homo sapiens, UniProt P03952)", "pIC50": 9.54}

---

Target: Plasmin (Homo sapiens)
Sequence (P00747 581-810 limits assumed, species assumed): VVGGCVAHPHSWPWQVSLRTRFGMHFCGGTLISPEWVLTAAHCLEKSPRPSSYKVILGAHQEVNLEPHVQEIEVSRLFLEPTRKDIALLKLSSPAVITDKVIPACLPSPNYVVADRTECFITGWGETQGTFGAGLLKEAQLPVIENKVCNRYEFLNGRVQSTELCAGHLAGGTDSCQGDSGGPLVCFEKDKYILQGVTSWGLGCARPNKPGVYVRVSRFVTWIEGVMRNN
Sequence (P00747 97-580 partner limits assumed, species assumed): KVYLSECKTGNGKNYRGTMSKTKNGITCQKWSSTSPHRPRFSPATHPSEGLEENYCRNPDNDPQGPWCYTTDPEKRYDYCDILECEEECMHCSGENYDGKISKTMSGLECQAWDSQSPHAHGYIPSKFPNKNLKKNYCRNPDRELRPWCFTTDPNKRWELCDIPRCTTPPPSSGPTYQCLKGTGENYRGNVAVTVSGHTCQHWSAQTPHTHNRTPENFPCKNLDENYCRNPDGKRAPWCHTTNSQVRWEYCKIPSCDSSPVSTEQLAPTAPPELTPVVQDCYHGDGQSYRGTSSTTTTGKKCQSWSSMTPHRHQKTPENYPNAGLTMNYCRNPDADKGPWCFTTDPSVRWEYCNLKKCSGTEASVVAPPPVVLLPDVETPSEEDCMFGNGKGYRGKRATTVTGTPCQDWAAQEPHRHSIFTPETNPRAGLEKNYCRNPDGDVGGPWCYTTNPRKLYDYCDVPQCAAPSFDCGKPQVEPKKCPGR
Assay: Time-dependent potency determination against plasmin
Details: Plasmin IC50, 10 min preincubation
Here the recorded IC50 is given for each entry.
reportedProperty: IC50

{"compound": "O=C(NCc1cccc(Cl)c1)c1cnn(Cc2ccc(Cn3cccn3)cc2)c1 [Compound 24]", "valueMeasured": "> 40 µM"}
{"compound": "CC1(C)OB(C(NC(=O)c2cnn(Cc3ccc(Cn4cccn4)cc3)c2)c2cccc(Cl)c2)OC1(C)C (stereo not drawn) [Compound 19]", "valueMeasured": "> 40 µM"}
{"compound": "Cc1ccc(C(CC(=O)c2cnn(Cc3ccc(Cn4cccn4)cc3)c2)B2OC(C)(C)C(C)(C)O2)c(F)c1 (stereo not drawn) [Compound 32]", "valueMeasured": "> 40 µM"}
{"compound": "Cc1ccc(C(NC(=O)c2cnn(Cc3ccc(Cn4cccn4)cc3)c2)B2OC(C)(C)C(C)(C)O2)c(F)c1 (stereo not drawn) [Compound 20]", "valueMeasured": "19.8 µM"}
{"compound": "Cc1ccc(CNC(=O)c2cnn(Cc3ccc(Cn4cccn4)cc3)c2)c(F)c1 [Compound 26]", "valueMeasured": "> 40 µM"}
{"compound": "CC1(C)OB(C(CC(=O)c2cnn(Cc3ccc(Cn4cccn4)cc3)c2)c2cccc(Cl)c2)OC1(C)C (stereo not drawn) [Compound 31]", "valueMeasured": "> 40 µM"}

---

Target: plasma kallikrein (PKa) (Homo sapiens)
Assay: Isolated enzyme potency against PKa, IC50 after enzyme/inhibitor preincubation time course

{"compound": "Cc1ccc(C(NC(=O)c2cnn(Cc3ccc(Cn4cccn4)cc3)c2)B2OC(C)(C)C(C)(C)O2)c(F)c1 (stereo not shown) [Compound 20]", "testedTarget": "plasma kallikrein (PKa) (Homo sapiens)", "units": "pM", "IC50": 330}

---

Molecular target: Plasmin (Homo sapiens)
Assay: Time-dependent potency determination against plasmin
Details: read-out: Plasmin IC50; 60 min preincubation

{"substance": "D-Phe-Pro-Arg-chloromethylketone [Compound 23, reference compound]", "IC50 [nM]": 248}

---

Target: plasma kallikrein (PKa) (Homo sapiens)
Assay: Isolated enzyme potency against PKa, IC50 after enzyme/inhibitor preincubation time course
Settings: read-out: PKa IC50; 10 min preincubation
pIC50: −log10 of the molar value.
Decision: pIC50 >= 7 yields criterion met, all other cases yield criterion not met.

{"compound": "O=C(/C=C/c1cccc(Cl)c1)c1cnn(Cc2ccc(Cn3cccn3)cc2)c1", "labelClass": "criterion not met"}
{"compound": "Cc1ccc(CNC(=O)c2cnn(Cc3ccc(Cn4cccn4)cc3)c2)c(F)c1", "labelClass": "criterion not met"}
{"compound": "Cc1ccc(C(NC(=O)c2cnn(Cc3ccc(Cn4cccn4)cc3)c2)B2OC(C)(C)C(C)(C)O2)c(F)c1 (stereo not shown)", "labelClass": "criterion met"}
{"compound": "Cc1ccc(CNC(=O)c2cnn(Cc3ccc(Cn4ccccc4=O)cc3)c2)c(F)c1", "labelClass": "criterion met"}
{"compound": "Cc1ccc(C(NC(=O)c2cnn(Cc3ccc(Cn4ccccc4=O)cc3)c2)B2OC(C)(C)C(C)(C)O2)c(F)c1 (stereo not shown)", "labelClass": "criterion met"}
{"compound": "O=C(NCc1cccc(Cl)c1)c1cnn(Cc2ccc(Cn3cccn3)cc2)c1", "labelClass": "criterion not met"}
{"compound": "O=C(NCc1cccc(Cl)c1)c1cnn(Cc2ccc(Cn3ccccc3=O)cc2)c1", "labelClass": "criterion not met"}

Data origin: paper PMC11017388
